The reported measurements were obtained from the supplement of paper PMC13380429.

- Test system: Calu-3
- Test details: drug sensitivity score (DSS) for viability; higher = more toxic; extreme values may be limits of the assay
- Measurement setup: 72 h
Property measured: drug sensitivity score

molecule=C(=C\c1ccccc1)/CN1CCN(CCOC(c2ccccc2)c2ccccc2)CC1 test_target=Calu-3 property_measured="drug sensitivity score" recorded_number=0
molecule="S=C=Nc1ccc(N=C=S)cc1 [bitoscanate]" test_target=Calu-3 property_measured="drug sensitivity score" recorded_number=0
molecule="CCOC(=O)C1=CCCC[C@H]1S(=O)(=O)Nc1ccc(F)cc1Cl [resatorvid]" test_target=Calu-3 property_measured="drug sensitivity score" recorded_number=0
molecule=CC(C)(C)C[C@@H]1N[C@@H](C(=O)N[C@H]2CC[C@H](O)CC2)[C@H](c2cccc(Cl)c2F)[C@]12C(=O)Nc1cc(Cl)ccc12 test_target=Calu-3 property_measured="drug sensitivity score" recorded_number=0.7
molecule="COC(=O)CN1CN(c2ccccc2)C2(CCN(Cc3cccc4ccccc34)CC2)C1=O [NNC-63-0532]" test_target=Calu-3 property_measured="drug sensitivity score" recorded_number=0
molecule=CC(C)c1cc(C(=O)N2Cc3ccc(CN4CCN(C)CC4)cc3C2)c(O)cc1O test_target=Calu-3 property_measured="drug sensitivity score" recorded_number=13.3
molecule="Cc1cc(C)c(NC(=O)C2CC3CCC2C3)c(C)c1 (stereo not drawn) [ML-213]" test_target=Calu-3 property_measured="drug sensitivity score" recorded_number=0
molecule="CC1=C(/C=C/C(C)=C/C=C/C(C)=C/CO)C(C)(C)CCC1 [retinol]" test_target=Calu-3 property_measured="drug sensitivity score" recorded_number=0
molecule="Cc1cc2nc3c(=O)[nH]c(=O)nc-3n(C[C@H](O)[C@H](O)[C@H](O)COP(=O)(O)O)c2cc1C [riboflavin-5-phosphate-sodium]" test_target=Calu-3 property_measured="drug sensitivity score" recorded_number=0
molecule="C1CCN2C[C@@H]3C[C@@H](CN4CCCC[C@@H]34)[C@H]2C1 [sparteine-sulfate]" test_target=Calu-3 property_measured="drug sensitivity score" recorded_number=0
molecule="C#Cc1cccc(Nc2ncnc3cc4c(cc23)OCCOCCOCCO4)c1 [icotinib]" test_target=Calu-3 property_measured="drug sensitivity score" recorded_number=7.2
molecule="c1ccc(CC2=NCCN2)cc1 [tolazoline]" test_target=Calu-3 property_measured="drug sensitivity score" recorded_number=0
molecule="O=[N+]([O-])c1cc2nc(O)c(O)nc2cc1[N+](=O)[O-] [DNQX]" test_target=Calu-3 property_measured="drug sensitivity score" recorded_number=0
molecule="O=C(O)CCC(=O)O [succinic-acid]" test_target=Calu-3 property_measured="drug sensitivity score" recorded_number=0
molecule="C=C1CC[C@@]2(O)[C@H]3Cc4ccc(O)c5c4[C@@]2(CCN3CC2CC2)[C@H]1O5 [nalmefene]" test_target=Calu-3 property_measured="drug sensitivity score" recorded_number=0
molecule="CC(OC(=O)OC1CCCCC1)OC(=O)C1=C(CSc2nnnn2CCN(C)C)CS[C@@H]2[C@H](NC(=O)Cc3csc(N)n3)C(=O)N12 (stereo partly drawn) [cefotiam-cilexetil]" test_target=Calu-3 property_measured="drug sensitivity score" recorded_number=0
molecule=Nc1ncnc2c1c(COc1cccc(Cl)c1)nn2C1CCOCC1 test_target=Calu-3 property_measured="drug sensitivity score" recorded_number=0.6
molecule="CC[C@H](C)[C@H](N)C1=N[C@H](C(=O)N[C@@H](CC(C)C)C(=O)N[C@H](CCC(=O)[O-])C(=O)N[C@H](C(=O)N[C@H]2CCCCNC(=O)[C@H](CC(N)=O)NC(=O)[C@@H](CC(=O)[O-])NC(=O)[C@H](Cc3cnc[nH]3)NC(=O)[C@@H](Cc3ccccc3)NC(=O)[C@H]([C@@H](C)CC)NC(=O)[C@@H](CCCN)NC2=O)[C@@H](C)CC)CS1.[Zn+2] [bacitracin-zinc]" test_target=Calu-3 property_measured="drug sensitivity score" recorded_number=0
molecule="C/C(=C(\\CCOP(=O)(O)O)SC(=O)c1ccccc1)N(C=O)Cc1cnc(C)nc1N [benfotiamine]" test_target=Calu-3 property_measured="drug sensitivity score" recorded_number=0
molecule="COc1cc(OC)c2c(=O)[nH]c(-c3cc(C)c(OCCO)c(C)c3)nc2c1 [apabetalone]" test_target=Calu-3 property_measured="drug sensitivity score" recorded_number=0
molecule="CO/N=C1/C[C@@H](C(=O)NC[C@@H](O)c2ccccc2)N(C(=O)c2ccc(-c3ccccc3C)cc2)C1 [OT-R-antagonist-1]" test_target=Calu-3 property_measured="drug sensitivity score" recorded_number=0
molecule="Cc1cc(C(C)(C)C)c(O)c(C)c1CC1=NCCN1 [oxymetazoline]" test_target=Calu-3 property_measured="drug sensitivity score" recorded_number=0
molecule=O=C(Nc1c(-c2cccs2)nc2ccccn12)c1ccc(Cl)cc1 test_target=Calu-3 property_measured="drug sensitivity score" recorded_number=0

* * *

- Test system: U2OS
- Test details: cell viability relative to DMSO; higher = less toxic
- Measurement setup: 72 h; 10 nM
Measured cell viability of individual entries
Property measured: cell viability (%)

compound="Nc1ncnc2c1ncn2CCOCP(=O)(O)O [adefovir]" test_target=U2OS unit_symbol=% recorded_number=99.1
compound="Oc1ccc2c(c1)CC[C@H](c1ccccc1)[C@@H]2c1ccc(OCCN2CCCC2)cc1 [lasofoxifene]" test_target=U2OS unit_symbol=% recorded_number=99.3
compound="Cc1ncc(CO)c(C=O)c1O [pyridoxal]" test_target=U2OS unit_symbol=% recorded_number=95.7
compound="C[C@]12CCC(=O)C=C1[C@@H]1C[C@@H]1[C@H]1[C@@H]3[C@@H]4C[C@@H]4[C@@]4(CCC(=O)O4)[C@@]3(C)CC[C@@H]12 [drospirenone]" test_target=U2OS unit_symbol=% recorded_number=102
compound="CC(C)(C)C(=O)CN1C(=O)[C@H](NC(=O)Nc2cccc(C(=O)O)c2)CN(C2CCCCC2)c2ccccc21 [nastorazepide]" test_target=U2OS unit_symbol=% recorded_number=96.7
compound="C=CC(=O)N1CCC(Oc2cc3c(Nc4ccc(Cl)c(Cl)c4F)ncnc3cc2OC)CC1 [poziotinib]" test_target=U2OS unit_symbol=% recorded_number=94.4
compound="C=CC1=C(C)C2=CC3=NC(=C(CC(=O)O)C4=NC(=C(C)C4=C(O)O)C=c4[nH]c(c(C)c4CC)=CC1=N2)C(CCC(=O)O)C3C (configuration not stated) [chlorophyllin]" test_target=U2OS unit_symbol=% recorded_number=96.1

* * *

- Test system: Calu-3
- Test details: cell viability relative to DMSO; higher = less toxic
- Measurement setup: 72 h; 100 nM
Measured cell viability of individual entries
Property measured: cell viability (%)

molecule=Cc1cn([C@H]2C=C[C@@H](CO)O2)c(=O)[nH]c1=O recorded_number=92.9
molecule=Cc1ncc(OC[C@@]2(c3cccc(F)c3)C[C@H]2C(=O)Nc2ccc(F)cn2)c(C)n1 recorded_number=97.6
molecule=O=C(c1ccc(F)cc1)C1CCN(CCn2c(=O)[nH]c3ccccc3c2=O)CC1 recorded_number=90.3
molecule=Cc1cc2c(cc1C(F)(F)F)N(C(=O)Nc1ccc(Oc3cccnc3C)nc1)CC2 recorded_number=96
molecule=CC(=O)[C@]1(N)Cc2c(O)c3c(c(O)c2[C@@H](O[C@H]2C[C@H](O)[C@H](O)CO2)C1)C(=O)c1ccccc1C3=O recorded_number=114
molecule=COc1ccccc1C(=O)Nc1cccc(NC(=O)c2cccc(C)c2)c1 recorded_number=96.2
molecule=CCC(=O)Nc1cccc(Oc2nc(Nc3ccc(N4CCN(C)CC4)cc3OC)ncc2Cl)c1 recorded_number=94.8
molecule=C/C(=C\C(=O)OCCCCCCCCC(=O)O)C[C@@H]1OC[C@H](C[C@@H]2O[C@H]2[C@@H](C)[C@H](C)O)[C@@H](O)[C@H]1O recorded_number=102
molecule=O=C(O)C1=CCCNC1 recorded_number=102
molecule="Nc1ncnc2c1c(-c1cccc(OCc3ccccc3)c1)cn2C1CC(CN2CCCC2)C1 (stereo in doubt)" recorded_number=107
molecule=Oc1ccc2c(c1)CC[C@H](c1ccccc1)[C@@H]2c1ccc(OCCN2CCCC2)cc1 recorded_number=97.6
molecule=O=C1NC(=O)c2c1c1c3ccccc3[nH]c1c1[nH]c3ccccc3c21 recorded_number=95.6
molecule=S=C=Nc1cccc(NC(=S)NCCCCNC(=S)Nc2cccc(N=C=S)c2)c1 recorded_number=109
molecule=Nc1ncnc2c1c(COc1cccc(Cl)c1)nn2C1CCOCC1 recorded_number=95.3
molecule=CS(=O)(=O)c1ccc(C2=C(c3ccccc3)C(=O)OC2)cc1 recorded_number=98
molecule=Cc1cc2nc3c(=O)[nH]c(=O)nc-3n(C)c2cc1C=O recorded_number=96
molecule=C[C@@H]1CN(Cc2ccc(F)cc2)CCN1C(=O)COc1ccc(Cl)cc1NC(N)=O recorded_number=98.1
molecule=COc1ccc(OC)c(CN(C(C)=O)c2cc(F)ccc2Oc2ccccc2)c1 recorded_number=93.7
molecule="O=C(O)CC/C=C\\C[C@@H]1CO[C@H](c2ccccc2Cl)O[C@@H]1c1ccccc1O (racemic)" recorded_number=102
molecule=c1ccc2nc(C3=NCCN3)ccc2c1 recorded_number=106
molecule=O=C(NCC1(N2CCN(c3ccccc3)CC2)CCOCC1)c1cccnc1Sc1ccccc1 recorded_number=104
molecule=CC(C)c1cc(C(=O)N2Cc3ccc(CN4CCN(C)CC4)cc3C2)c(O)cc1O recorded_number=77.8
molecule=Nc1cccc(-c2cc3c(Oc4cccc(O)c4)ncnc3[nH]2)c1 recorded_number=86.2
molecule=C[C@H](N/C(=N/C#N)Nc1cccc2ncccc12)c1ccccc1 recorded_number=107
molecule=O=C(OC(C(F)(F)F)C(F)(F)F)N1CCC(C(O)(c2ccc3c(c2)OCO3)c2ccc3c(c2)OCO3)CC1 recorded_number=98
molecule=Nc1ncnc2c1ncn2CCOCP(=O)(O)O recorded_number=104
molecule=C#Cc1cccc(Nc2ncnc3cc4c(cc23)OCCOCCOCCO4)c1 recorded_number=90.2
